Target: T1, recombinant human HER2 extracellular domain protein (human, UniProt P04626 23-652)
T1 construct: range 23-652; Range is printed for the immunogen/panning protein; also called ErbB2; recombinant HER2 protein
Test: BLI, Protein A capture
Recorded pKd values for a group of binders are listed next.
Value format note: pKd is -log10 of concentration (mol/L); just state the number.

Binder	pKd
2126-Hu-H40 (antibody, IgG1, V domains shown, IgG1/Cκ) VH: QVQLVQSGSELKKPGASVKVSCKASGYTFTDYSMHWVRQAPGQGLEWMGWINTETGEPTYADDFKGRFVFSRDTSVSTAYLQISSLKAEDTAVYFCVRVGRYDYAMDYWGQGTTVTVSS VL: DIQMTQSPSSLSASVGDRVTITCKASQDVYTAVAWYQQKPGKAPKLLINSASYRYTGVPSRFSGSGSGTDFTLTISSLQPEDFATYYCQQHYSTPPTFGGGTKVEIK	8.72
2126-Hu-L08 (antibody, IgG1, V domains shown, IgG1/Cκ) VH: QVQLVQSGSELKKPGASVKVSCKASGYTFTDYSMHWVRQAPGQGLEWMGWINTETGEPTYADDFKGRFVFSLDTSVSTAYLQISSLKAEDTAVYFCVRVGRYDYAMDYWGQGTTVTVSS VL: DIQMTQSPSSLSASVGDRVTITCKASQDVYTAVAWYQQKPGKAPKLLINSASERYTGVPSRFSGSGSGTDFTLTISSLQPEDFATYYCQQHYSTPPTFGGGTKVEIK	8.18
2126-Hu-L04 (antibody, IgG1, V domains shown, IgG1/Cκ) VH: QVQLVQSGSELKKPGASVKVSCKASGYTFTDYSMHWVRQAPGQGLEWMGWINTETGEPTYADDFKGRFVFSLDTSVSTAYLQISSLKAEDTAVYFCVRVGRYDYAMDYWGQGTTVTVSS VL: DIQMTQSPSSLSASVGDRVTITCKASQDVYTYVAWYQQKPGKAPKLLINSASYRYTGVPSRFSGSGSGTDFTLTISSLQPEDFATYYCQQHYSTPPTFGGGTKVEIK	7.86
2126-Hu-H51 (antibody, IgG1, name in Kabat numbering, V domains shown, IgG1/Cκ) VH: QVQLVQSGSELKKPGASVKVSCKASGYTFTDYSMHWVRQAPGQGLEWMGWINTETGEPTYADDFKGRFVFSLDTSVSTAYLQISSLKAEDTAVYFCVRVGRFDYAMDYWGQGTTVTVSS VL: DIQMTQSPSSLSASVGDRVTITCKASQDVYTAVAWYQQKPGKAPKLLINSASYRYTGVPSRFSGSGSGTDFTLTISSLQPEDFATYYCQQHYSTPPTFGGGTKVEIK	7.62

Exam item: # query: pKd of entry 2126-Hu-H53 (antibody, IgG1, name in Kabat numbering, V domains shown, IgG1/Cκ) VH: QVQLVQSGSELKKPGASVKVSCKASGYTFTDYSMHWVRQAPGQGLEWMGWINTETGEPTYADDFKGRFVFSLDTSVSTAYLQISSLKAEDTAVYFCVRVGRNDYAMDYWGQGTTVTVSS VL: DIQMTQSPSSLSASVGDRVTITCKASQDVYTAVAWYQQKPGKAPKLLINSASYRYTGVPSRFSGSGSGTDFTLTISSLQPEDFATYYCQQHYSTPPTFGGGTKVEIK
Marked response: 7.33
